assayed.target: Growth hormone secretagogue receptor type 1 (Homo sapiens)
Sequence (Q92847 whole entry): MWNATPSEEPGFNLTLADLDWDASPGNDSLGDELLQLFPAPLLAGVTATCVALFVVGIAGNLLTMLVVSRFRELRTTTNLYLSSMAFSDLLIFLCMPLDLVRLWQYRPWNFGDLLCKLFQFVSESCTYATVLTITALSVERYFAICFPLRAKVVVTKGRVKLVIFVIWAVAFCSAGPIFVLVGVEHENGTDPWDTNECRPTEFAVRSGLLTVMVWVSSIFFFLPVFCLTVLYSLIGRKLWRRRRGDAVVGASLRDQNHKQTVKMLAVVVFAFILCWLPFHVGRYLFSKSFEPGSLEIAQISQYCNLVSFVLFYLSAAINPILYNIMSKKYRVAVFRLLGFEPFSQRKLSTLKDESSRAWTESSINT
protocol.summary: SUPPLEMENTARY: Agonist activity at GSHR by FLIPR assay. Same assay as CHEMBL941945
measurement.type: EC50 (nM)
Answers are plain numbers, in nM.

Examples with answers:
> print(dat)
                        structure.as.smiles  value.units  measured.number
1  C[C@@H]1CN(c2ccc(O)c(NS(=O)(=O)c3ccc(-c4ccccc4F)s3)c2)C[C@H](C)N1           nM             6.31
2  COc1ccc(N2C[C@@H](C)N[C@@H](C)C2)cc1NS(=O)(=O)c1cc(C)c(-c2ccccc2F)s1           nM             63.1
3  COc1ccc(NS(=O)(=O)c2sc3ccc(Cl)cc3c2C)cc1N1C[C@@H](C)N[C@@H](C)C1           nM             31.6
4  COc1cc(F)c(N2C[C@@H](C)N[C@@H](C)C2)cc1NS(=O)(=O)c1ccc(-c2cccs2)cc1           nM             7.94

Below is a list of compounds. For each, state its recorded EC50.
1. COc1ccc(N2C[C@@H](C)N[C@@H](C)C2)cc1NS(=O)(=O)c1ccc(-c2ccc(Cl)s2)cc1
2. COCc1cccc(-c2ccc(S(=O)(=O)Nc3cc(N4C[C@@H](C)N[C@@H](C)C4)ccc3OC)cc2)c1
3. C[C@@H]1CN(c2cccc(NS(=O)(=O)c3ccc(-c4cccs4)cc3)c2)C[C@H](C)N1

output:
12.6
6.31
6.31

Below is a list of compounds. For each, state its recorded EC50.
1. COc1ccc(N2C[C@@H](C)N[C@@H](C)C2)cc1NS(=O)(=O)c1ccc(-c2cc(C)cs2)cc1C
2. C[C@@H]1CN(c2cccc(NS(=O)(=O)c3cccc4ccccc34)c2)C[C@H](C)N1

output:
0.398
10

* * *

assayed.target: Growth hormone secretagogue receptor type 1 (Homo sapiens)
protocol.summary: SUPPLEMENTARY: Agonist activity at GSHR by FLIPR assay. Same assay as CHEMBL941945
measurement.type: log10 EC50 (log10 of the value in nM)
A difference of one corresponds to tenfold EC50; all values are log10 with EC50 in nM.

Examples with answers:
> print(dat)
                         structure.as.smiles  measured.number
 1  COc1ccc(N2C[C@@H](C)N[C@@H](C)C2)cc1NS(=O)(=O)c1ccc(-c2ccsc2)cc1C             0.70
 2  COc1ccc(NS(=O)(=O)/C=C/c2ccccc2)cc1N1C[C@@H](C)N[C@@H](C)C1             1.20
 3  COc1ccc(N2C[C@@H](C)N[C@@H](C)C2)cc1NS(=O)(=O)c1cccc(-c2cc(C)cs2)c1             1.70
 4  COc1ccc(N2C[C@@H](C)N[C@@H](C)C2)cc1NS(=O)(=O)c1ccc(-c2csnn2)s1             1.40
 5  COc1ccc(NS(=O)(=O)c2ccc(-c3cccs3)cc2F)cc1N1C[C@@H](C)N[C@@H](C)C1             0.40
 6  COc1ccc(NS(=O)(=O)c2ccc(-c3ccccc3)s2)cc1N1C[C@@H](C)N[C@@H](C)C1             0.00
 7  COc1ccc(N2C[C@@H](C)N[C@@H](C)C2)cc1NS(=O)(=O)c1ccc(-c2cccs2)nc1             1.70
 8  COc1ccc(N2C[C@@H](C)N[C@@H](C)C2)cc1NS(=O)(=O)c1ccc(-c2ccc(C)o2)cc1Cl            -0.50
 9  COc1ccc(N2C[C@@H](C)N[C@@H](C)C2)cc1NS(=O)(=O)c1ccc(-c2cccc(F)c2F)cc1             1.50
10  COc1ccc(NS(=O)(=O)c2ccc(-c3cnco3)cc2)cc1N1C[C@@H](C)N[C@@H](C)C1             1.60

Below is a list of compounds. For each, state its recorded log10 EC50.
1. COc1ccc(NS(=O)(=O)c2ccc(-c3ccccc3C)cc2)cc1N1C[C@@H](C)N[C@@H](C)C1
2. COc1ccc(N2C[C@@H](C)N(C)[C@@H](C)C2)cc1NS(=O)(=O)c1ccc(-c2cccs2)cc1
3. COc1ccc(NS(=O)(=O)c2ccc(-n3cccn3)cc2)cc1N1C[C@@H](C)N[C@@H](C)C1

output:
[2.00, 1.10, 0.80]

Below is a list of compounds. For each, state its recorded log10 EC50.
1. COc1ccc(N2C[C@@H](C)N[C@@H](C)C2)cc1NS(=O)(=O)c1ccc(-c2ccoc2)cc1
2. COc1ccc(N2C[C@@H](C)N[C@@H](C)C2)cc1NS(=O)(=O)c1cc(F)c(-c2ccco2)cc1F

output:
[0.90, 1.20]

Below is a list of compounds. For each, state its recorded log10 EC50.
1. COc1ncc(N2C[C@@H](C)N[C@@H](C)C2)cc1NS(=O)(=O)c1ccc(-c2ccc(C)o2)c(F)c1
2. COc1ccc(N2C[C@@H](C)N[C@@H](C)C2)cc1NS(=O)(=O)c1ccc(-c2cccc(C)n2)c(F)c1
3. COc1ccc(N2C[C@@H](C)N[C@@H](C)C2)cc1NS(=O)(=O)c1ccc(-c2csc(C)c2)cc1F
4. COc1cc(-c2cccs2)ccc1S(=O)(=O)Nc1cccc(N2C[C@@H](C)N[C@@H](C)C2)c1
5. C[C@@H]1CN(c2ccc(Cl)c(NS(=O)(=O)c3ccc(-c4ccccc4F)s3)c2)C[C@H](C)N1
6. COc1ccc(NS(=O)(=O)c2ccc(-c3cnco3)s2)cc1N1C[C@@H](C)N[C@@H](C)C1
7. Cc1ccc(-c2ccc(S(=O)(=O)Nc3cc(N4C[C@@H](C)N[C@@H](C)C4)c[nH]c3=O)cc2F)o1
8. CCOc1ccc(N2C[C@@H](C)N[C@@H](C)C2)cc1NS(=O)(=O)c1ccc(-c2cccs2)cc1

output:
1: 1.80; 2: 1.90; 3: 0.40; 4: 1.30; 5: 1.00; 6: 1.60; 7: 1.00; 8: 1.10

Below is a list of compounds. For each, state its recorded log10 EC50.
1. Cc1ccc(-c2ccc(S(=O)(=O)Nc3cccc(N4C[C@@H](C)N[C@@H](C)C4)n3)cc2F)o1
2. C[C@@H]1CN(c2ccc(O)c(NS(=O)(=O)c3ccc(-c4ccco4)cc3)c2)C[C@H](C)N1
3. COc1ccc(N2C[C@@H](C)N[C@@H](C)C2)cc1NS(=O)(=O)c1ccc(-c2cc(C)cs2)s1

output:
1. 0.00
2. 1.20
3. 0.30
